Form field: koff (one value per entry).
Molecular target: T1, his-tagged soluble human OX40 (huOX40-6xhis) (human, UniProt P43489 29-214)
T1 construct: made in-house; also called Human-OX40-6XHIS; hOX40; not shown: hexahistidine tag
T1 sequence: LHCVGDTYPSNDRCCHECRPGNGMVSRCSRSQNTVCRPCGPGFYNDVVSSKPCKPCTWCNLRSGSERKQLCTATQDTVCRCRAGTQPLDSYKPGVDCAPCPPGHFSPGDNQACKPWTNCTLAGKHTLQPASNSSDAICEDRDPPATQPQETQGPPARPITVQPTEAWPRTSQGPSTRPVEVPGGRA
Experiment: SPR, mAb captured on anti-human CH1, OX40-6XHIS analyte, 1:1 fit
Description: The affinity of several OX40 antibodies for soluble human OX40 was tested by SPR analysis. […] Human-OX40-6XHIS antigen in either a single concentration of 400 nM or a 1:2 serial dilution from 400 nM was used. Experiments were carried out on BIACORE® T200 or BIACORE® 3000 SPR instruments. Data was fit to a 1:1 model.
Note: unit s⁻¹ is implicit; provide only the numeric part.

BINDER	koff / s⁻¹
23H3 (antibody, V domains shown, also called 23H3.C6) VH: EVQLVQSGGGLVHPGGSLRLSCAGSGFTFSNYAMYWVRQAPGKGLEWVSAIGIGGDTFYTDSVKGRFTISRDNAKNSLSLQMNSLRAEDMAVYYCARMGTGYFFDYWGQGTLVTVSS VL: EIVLTQSPATLSLSPGERATLSCRASQSVSSYLAWYQQKPGQAPRLLIYDASNRATGIPARFSGSGSGTDFTLTISSLEPEDFAVYYCQQRSNWPLTFGPGTKVDIK	0.000395

Would you kindly look at the next entry?
Lookup: Given the binder 14B6 (antibody, V domains shown, also called 14B6.C5.C8; 14B6.C5) VH: EVQLEQSGAEVKKPGESLKISCKGSGYSFTSNWIGWVRQMPGKGLEWMGFIYPGDSDTRYSPSFQGQVTISADKSISTAYLQWSSLKASDIAMYYCARYGDDWYFDLWGRGTLVTVSS VL: EIVLTQSPATLSLSPGERATLSCRASQSVSSYLAWFQQRPGQAPRLLIYDASNRATGIPARFSGSGSGTDFSLTISSLEPEDFAVYYCQQRGDWPITFGQGTRLEIK , what is its reported koff?
Found: 0.000654
